Origin of the recorded values: ChEMBL document CHEMBL5705889

experiment: Drug concentration in mouse plasma at 1 mg/kg, iv administered as single dose and measured after 8 hrs; type: ADME, organism-based
assay.readout: concentration at 8 h (ng/mL)
Give the quantity in ng/mL, number only.

(Q) Consider the molecule `C=CC(=O)Nc1cccc(Oc2nc(Nc3ccc(N4CCN(C)CC4)cc3OC)ncc2Cl)c1` and give its recorded concentration at 8 h.
(A) 8

* * *

test: cells; format: functional, cell-based; conditions: Homo sapiens, NCI-H1819, 72 h
Under this convention, 1.0 denotes IC50 strictly below 100 nM and 0.0 denotes IC50 at or above 100 nM.

(Q) Is it true that IC50 reported for `CC#CC(=O)Nc1ccc2ncnc(Nc3cccc(Br)c3)c2c1` is less than 100 nM?
(A) 0.0

(Q) Is it true that IC50 reported for `C=CC(=O)Nc1cccc(Sc2nc(Nc3ccc(N4CCN(C)CC4)cc3)ncc2Cl)c1` is less than 100 nM?
(A) 0.0

(Q) Is it true that IC50 reported for `C=CC(=O)Nc1cccc(Oc2nc(Nc3ccc(N4CCN(C)CC4)cc3OC)ncc2Cl)c1` is less than 100 nM?
(A) 0.0

(Q) Is it true that IC50 reported for `CCOc1cc2ncc(C#N)c(Nc3ccc(OCc4ccccn4)c(Cl)c3)c2cc1NC(=O)/C=C/CN(C)C` is less than 100 nM?
(A) 1.0

(Q) Is it true that IC50 reported for `C=CC(=O)Nc1cccc(Oc2nc(Nc3ccc(N4CCN(C)CC4)cc3)ncc2Cl)c1` is less than 100 nM?
(A) 0.0
